Reported values of ELISA luminescence signal at 10 nmol/L peptide, relative to SEQ ID NO: 47 (=1) for individual entries
Experimental Target: T1, Recombinant Human FGFR2 alpha (IIIc) Fc Chimera Protein, CF (R&D systems, 712-FR-050) (human, UniProt P21802 22-377)
T1 construct: bought; not shown: Fc part of the chimera
T1 sequence (P21802 22-377, change not shown): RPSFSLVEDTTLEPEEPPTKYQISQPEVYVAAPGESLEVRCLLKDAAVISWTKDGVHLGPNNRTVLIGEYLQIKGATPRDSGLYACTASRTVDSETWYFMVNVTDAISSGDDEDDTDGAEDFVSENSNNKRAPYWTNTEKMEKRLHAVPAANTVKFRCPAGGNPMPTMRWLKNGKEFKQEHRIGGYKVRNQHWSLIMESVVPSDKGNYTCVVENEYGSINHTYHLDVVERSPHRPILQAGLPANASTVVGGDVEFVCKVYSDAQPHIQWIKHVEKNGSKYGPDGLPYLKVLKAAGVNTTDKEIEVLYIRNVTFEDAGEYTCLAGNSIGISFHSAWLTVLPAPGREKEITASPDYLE
Protocol Details: ELISA on plate-bound FGFR2-Fc
Bridge positions count the residues as written; N and C are the ends. Ends that are not written are not given here. COCH2 = acetyl group that carries the bridge

Binder	Reported Result
YCEETYLDPEQYQYFIYFK(COCH2)Y (thioether 2-19 (inferred)) [cyclic peptide SEQ ID NO: 185]	0.1 to 0.5 ratio
YCEENYLLPEQYQYFIYFK(COCH2)Y (thioether 2-19 (inferred)) [cyclic peptide SEQ ID NO: 208]	0.1 to 0.5 ratio
YCESNYLDPEQYQYFIYFK(COCH2)Y (thioether 2-19 (inferred)) [cyclic peptide SEQ ID NO: 176]	≥ 0.7 ratio

# evaluate next
Task: ELISA luminescence signal at 10 nmol/L peptide, relative to SEQ ID NO: 47 (=1) lookup needed for YCEENYLDPEQYQYFIMFK(COCH2)Y (thioether 2-19) [cyclic peptide SEQ ID NO: 359] , thanks.
Result: ≥ 0.7 ratio
